- targetEntity: FLIPK-142µ (Salmonella enterica, UniProt P02911, Y36A)
- Construct: LAO without first 22 residues (signal peptide), CFP at N-terminus and YFP at C-terminus, N-terminal (His)6 tag, pRSET-B
- testDescription: In vitro FRET titration of purified CFP-LAO-YFP sensor with lysine in 20 mM PBS buffer pH 7.5, YFP/CFP (535/485 nm) emission ratio in a microplate reader, fitted to a simple binding isotherm.
- measurementConditions: n = 3
recordedEndpoint: Kd
// return the numeric value with its unit appended

The recorded Kd for NCCCC[C@H](N)C(=O)O is 142 µM

* * *

- targetEntity: FLIPK-306µ (Salmonella enterica, UniProt P02911, R99L)
- Construct: LAO without first 22 residues (signal peptide), CFP at N-terminus and YFP at C-terminus, N-terminal (His)6 tag, pRSET-B
- Sequence (P02911 23-260 R99L): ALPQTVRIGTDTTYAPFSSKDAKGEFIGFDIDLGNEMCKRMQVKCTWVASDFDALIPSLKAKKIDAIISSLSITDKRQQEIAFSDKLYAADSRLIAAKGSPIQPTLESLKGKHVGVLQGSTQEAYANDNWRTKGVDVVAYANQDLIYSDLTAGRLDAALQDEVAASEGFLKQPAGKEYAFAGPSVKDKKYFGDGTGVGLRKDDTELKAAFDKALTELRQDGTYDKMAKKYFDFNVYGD
- testDescription: In vitro FRET titration of purified CFP-LAO-YFP sensor with lysine in 20 mM PBS buffer pH 7.5, YFP/CFP (535/485 nm) emission ratio in a microplate reader, fitted to a simple binding isotherm.
- measurementConditions: n = 3
- Method: Specificity of the sensor protein was measured by using five amino acids, arginine, leucine, lysine, ornithine and histidine at three different concentrations i.e. 0, 1.0 and 10 mM, each. FRET measurement was carried out by using a microplate reader. The excitation filter/slit used was 430 nm/20 nm and emission filters/slits for CFP and YFP were 485 nm/20 nm and 535 nm/25 nm, respectively. […] Affinity of sensor protein was monitored by using different concentrations of lysine. […]
recordedEndpoint: pKd
Field pKd (float): negative decimal logarithm of the concentration in molar.

The recorded pKd for NCCCC[C@H](N)C(=O)O is 3.51

* * *

- targetEntity: FLIPK-14 µ (Salmonella enterica, UniProt P02911, F74A)
- Construct: gene argT; LAO without first 22 residues (signal peptide), CFP at N-terminus and YFP at C-terminus, N-terminal (His)6 tag, pRSET-B
- Sequence (P02911 23-260 F74A): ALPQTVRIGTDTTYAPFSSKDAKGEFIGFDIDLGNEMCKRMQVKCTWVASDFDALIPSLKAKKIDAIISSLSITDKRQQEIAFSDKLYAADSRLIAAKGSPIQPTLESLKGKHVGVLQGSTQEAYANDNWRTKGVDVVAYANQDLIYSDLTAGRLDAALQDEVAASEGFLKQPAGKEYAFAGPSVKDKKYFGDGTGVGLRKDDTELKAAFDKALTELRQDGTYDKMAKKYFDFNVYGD
- testDescription: In vitro FRET titration of purified CFP-LAO-YFP sensor with lysine in 20 mM PBS buffer pH 7.5, YFP/CFP (535/485 nm) emission ratio in a microplate reader, fitted to a simple binding isotherm.
- measurementConditions: n = 3
recordedEndpoint: pKd
Field pKd (float): negative decimal logarithm of the concentration in molar.

The recorded pKd for NCCCC[C@H](N)C(=O)O [lysine, L-lysine] is 4.85

Entry source: paper PMC4917951
